Give measured IC50 for each item. Keep answers brief.
System: A549 cell line
Experiment summary: cells
Assay type: cell-based
Cond: A549 cells, MTT, 48 h cultivation; read-out: IC50 (μM) A549
One number for each entry, in µM.

Before answering, review these 2 worked examples.
>  <Compound>
COc1cc(C2c3cc4c(cc3C(Sc3nc(C)cc(C)n3)C3COC(=O)C23)OCO4)cc(OC)c1OC (stereo not shown)

>  <Quantity kind>
IC50

>  <Unit name>
µM

>  <Recorded value>
3.31

$$$$
>  <Compound>
COc1ccc(S(=O)(=O)Nc2n[nH]c(SC3c4cc5c(cc4C(c4cc(OC)c(OC)c(OC)c4)C4C(=O)OCC34)OCO5)n2)cc1 (stereo not shown)

>  <Quantity kind>
IC50

>  <Unit name>
µM

>  <Recorded value>
1.24

$$$$

State the recorded IC50 for every item in the following list.
1. COc1ccc(S(=O)(=O)Nc2nnc(SC3c4cc5c(cc4C(c4cc(OC)c(OC)c(OC)c4)C4C(=O)OCC34)OCO5)s2)cc1 (stereo not shown)
2. COc1cc(C2c3cc4c(cc3C(Sc3nnc(NS(=O)(=O)c5ccc(C)cc5)s3)C3COC(=O)C23)OCO4)cc(OC)c1O (stereo not shown)
3. COc1cc(C2c3cc4c(cc3C(Sc3ncccc3C(=O)O)C3COC(=O)C23)OCO4)cc(OC)c1O (stereo not shown)
4. COc1cc(C2c3cc4c(cc3C(Sc3nc5ccccc5[nH]3)C3COC(=O)C23)OCO4)cc(OC)c1OC (stereo not shown)
5. COc1cc(C2c3cc4c(cc3C(Sc3nc5ccccc5o3)C3COC(=O)C23)OCO4)cc(OC)c1O (stereo not shown)

[reply]
1: 4.05; 2: 5.89; 3: 2.03; 4: 6.76; 5: 1.46

###

System: A549 cell line
Experiment summary: cells
Type: cell-based
Cond: A549 cells, MTT, 48 h cultivation; read-out: IC50 (μM) A549
Give measured IC50 for each item. Keep answers brief.
One number for each entry, in µM.

Before answering, review these 2 worked examples.
>  <Molecule>
COc1cc(C2c3cc4c(cc3C(Sc3n[nH]c(C)n3)C3COC(=O)C23)OCO4)cc(OC)c1OC (stereo not drawn)

>  <IC50, µM>
1.01

$$$$
>  <Molecule>
COc1ccc(S(=O)(=O)Nc2nc(SC3c4cc5c(cc4C(c4cc(OC)c(O)c(OC)c4)C4C(=O)OCC34)OCO5)n[nH]2)cc1 (stereo not drawn)

>  <IC50, µM>
1.37

$$$$

In the following, a different molecule is considered.
Looking up COc1cc(C2c3cc4c(cc3C(Sc3ccncc3)C3COC(=O)C23)OCO4)cc(OC)c1OC (stereo not drawn) , I found its IC50 recorded as 8.12

###

Tested on: A549 cell line
Experiment summary: cells
Type: cell-based
Cond: A549 cells, MTT, 48 h cultivation; read-out: IC50 (μM) A549
So basically, the class depends on measured IC50, and the ranges are category 1: < 1 µM; category 2: ≥ 1 µM and < 4 µM; category 3: ≥ 4 µM

>  <Molecule>
COc1cc(C2c3cc4c(cc3C(Sc3nc5ccccc5s3)C3COC(=O)C23)OCO4)cc(OC)c1O (centres unmarked) [Compound 29]

>  <Label value>
category 1

$$$$
>  <Molecule>
COc1cc(C2c3cc4c(cc3C(Sc3nc(NS(=O)(=O)c5ccc(C)cc5)n[nH]3)C3COC(=O)C23)OCO4)cc(OC)c1OC (centres unmarked) [Compound 15]

>  <Label value>
category 2

$$$$
>  <Molecule>
COc1cc(C2c3cc4c(cc3C(Sc3cccc(C)n3)C3COC(=O)C23)OCO4)cc(OC)c1OC (centres unmarked) [Compound 7]

>  <Label value>
category 2

$$$$
>  <Molecule>
COc1cc(C2c3cc4c(cc3C(Sc3nc(C)cc(C)n3)C3COC(=O)C23)OCO4)cc(OC)c1O (centres unmarked) [Compound 28]

>  <Label value>
category 2

$$$$
>  <Molecule>
COc1cc(C2c3cc4c(cc3C(Sc3nccc(N)n3)C3COC(=O)C23)OCO4)cc(OC)c1O (centres unmarked) [Compound 27]

>  <Label value>
category 2

$$$$
>  <Molecule>
COc1cc(C2c3cc4c(cc3C(Sc3nccc(N)n3)C3COC(=O)C23)OCO4)cc(OC)c1OC (centres unmarked) [Compound 10]

>  <Label value>
category 3

$$$$
>  <Molecule>
COc1cc(C2c3cc4c(cc3C(Sc3n[nH]c(NS(=O)(=O)c5ccc(C)cc5)n3)C3COC(=O)C23)OCO4)cc(OC)c1O (centres unmarked) [Compound 32]

>  <Label value>
category 2

$$$$
>  <Molecule>
COc1cc(C2c3cc4c(cc3C(Sc3n[nH]c(N)n3)C3COC(=O)C23)OCO4)cc(OC)c1OC (centres unmarked) [Compound 1]

>  <Label value>
category 3

$$$$
>  <Molecule>
COc1cc(C2c3cc4c(cc3C(Sc3ccccn3)C3COC(=O)C23)OCO4)cc(OC)c1OC (stereo not drawn) [Compound 5, 4-S-(pyridin-2)-4-deoxy-podophyllotoxin]

>  <Label value>
category 3

$$$$
>  <Molecule>
COc1cc(C2c3cc4c(cc3C(Sc3nnc(C)s3)C3COC(=O)C23)OCO4)cc(OC)c1O (centres unmarked) [Compound 21]

>  <Label value>
category 3

$$$$

[ask] Hi, small favor: classify COc1ccc(S(=O)(=O)Nc2nnc(SC3c4cc5c(cc4C(c4cc(OC)c(O)c(OC)c4)C4C(=O)OCC34)OCO5)s2)cc1 (centres unmarked) [Compound 35] by its IC50 when you get a moment.
[reply] category 1

[ask] Hi, small favor: classify COc1cc(C2c3cc4c(cc3C(Sc3ncccn3)C3COC(=O)C23)OCO4)cc(OC)c1O (centres unmarked) [Compound 26] by its IC50 when you get a moment.
[reply] category 3
